Target: HLA-A0206 (Homo sapiens, UniProt P04439, D140Y/D185E/D98H/E176V/E277Q/F33Y/G131W/G231S/I119V/I121R/I166T/I218V/L300P/L318F/N151K/N90K/P208A/P217A/Q86G/Q94H/R138H/R169H/T345S)
Construct: expressed in transfected cells; host or cells: HMy2.CIR
Experiment: cell-based
Assay type: binding
Conditions: HLA-A0206 HMy2.CIR cells; competitor peptide 5μM; 24 hours; flow cytometry; read-out: 5μM Inhibition (%)
Residues, ends and D or L forms follow the SMILES beside them.
Please use 1 (yes) whenever inhibition at 5 µM is not below 10%, and 0 (no) whenever it is.

Here's what some known entries look like.
# Compound, Answer label
measured = [
    ("CC(C)C[C@H](NC(=O)[C@H](CC(=O)O)NC(=O)[C@@H](NC(=O)[C@@H](NC(=O)[C@@H](N)CO)[C@@H](C)O)[C@@H](C)O)C(=O)N[C@@H](CCC(=O)O)C(=O)N[C@@H](C)C(=O)N[C@@H](Cc1ccc(O)cc1)C(=O)N[C@@H](Cc1ccccc1)C(=O)N[C@@H](CCCCN)C(=O)O [Epitope P18]", "1 (yes)"),
    ("CC(C)C[C@H](NC(=O)[C@@H](N)Cc1ccccc1)C(=O)N1CCC[C@H]1C(=O)N[C@@H](CO)C(=O)N[C@@H](CC(=O)O)C(=O)N[C@@H](Cc1ccccc1)C(=O)N[C@@H](Cc1ccccc1)C(=O)N1CCC[C@H]1C(=O)N[C@@H](CO)C(=O)O [Epitope P67] (H-FLPSDFFPS-OH; N-terminus and C-terminus assumed)", "1 (yes)"),
    ("CSCC[C@H](NC(=O)[C@@H](N)CO)C(=O)N[C@@H](Cc1ccc(O)cc1)C(=O)N1CCC[C@H]1C(=O)N[C@@H](CO)C(=O)N[C@@H](CS)C(=O)N[C@@H](CS)C(=O)N[C@@H](CS)C(=O)N[C@H](C(=O)N[C@@H](CCCCN)C(=O)O)[C@@H](C)O [Epitope P13] (H-SMYPSCCCTK-OH; N-terminus and C-terminus assumed)", "1 (yes)"),
    ("CC[C@H](C)[C@H](NC(=O)[C@H](CO)NC(=O)[C@H](Cc1ccc(O)cc1)NC(=O)[C@@H](N)CC(C)C)C(=O)N[C@@H](CC(C)C)C(=O)N[C@@H](CO)C(=O)N1CCC[C@H]1C(=O)N[C@@H](Cc1ccccc1)C(=O)N[C@@H](CC(C)C)C(=O)O [Epitope P19] (H-LYSILSPFL-OH; N-terminus and C-terminus assumed)", "1 (yes)"),
    ("CC[C@H](C)[C@H](NC(=O)[C@H](Cc1c[nH]c2ccccc12)NC(=O)[C@@H](NC(=O)CNC(=O)[C@H](Cc1ccccc1)NC(=O)[C@H](CO)NC(=O)[C@@H](NC(=O)[C@@H](N)CC(C)C)C(C)C)C(C)C)C(=O)N[C@@H](CCCNC(=N)N)C(=O)O [Epitope P4]", "1 (yes)"),
]

Would you say CC(C)[C@H](N)C(=O)N[C@@H](CS)C(=O)N[C@@H](C)C(=O)N1CCC[C@H]1C(=O)N[C@@H](C)C(=O)N1CCC[C@H]1C(=O)N[C@@H](CS)C(=O)N[C@@H](CC(N)=O)C(=O)N[C@@H](Cc1ccccc1)C(=O)O [Epitope P26] (H-VCAPAPCNF-OH; N-terminus and C-terminus assumed) shows inhibition at 5 µM at minimum 10%?
0 (no)

Would you say CC[C@H](C)[C@H](NC(=O)[C@H](CC(C)C)NC(=O)[C@H](CCCCN)NC(=O)[C@H](C)NC(=O)CNC(=O)[C@H](CO)NC(=O)[C@H](CCCNC(=N)N)NC(=O)[C@H](CO)NC(=O)[C@@H](N)CCCNC(=N)N)C(=O)O [Epitope P89] (H-RSRSGAKLI-OH; N-terminus and C-terminus assumed) shows inhibition at 5 µM at minimum 10%?
1 (yes)

Would you say CC[C@H](C)[C@H](NC(=O)[C@H](CO)NC(=O)[C@H](CO)NC(=O)[C@@H](NC(=O)[C@@H]1CCCN1C(=O)[C@H](CO)NC(=O)[C@H](C)N)[C@@H](C)CC)C(=O)N[C@@H](Cc1ccccc1)C(=O)N[C@@H](CO)C(=O)N[C@@H](CCCNC(=N)N)C(=O)O [Epitope P14] (H-ASPISSIFSR-OH; N-terminus and C-terminus assumed) shows inhibition at 5 µM at minimum 10%?
0 (no)

Would you say CC[C@H](C)[C@H](NC(=O)CNC(=O)[C@H](CC(C)C)NC(=O)[C@H](CO)NC(=O)[C@H](CC(C)C)NC(=O)[C@H](CC(C)C)NC(=O)[C@@H](N)Cc1ccccc1)C(=O)N[C@@H](Cc1c[nH]cn1)C(=O)N[C@@H](CC(C)C)C(=O)O [Epitope P10] shows inhibition at 5 µM at minimum 10%?
1 (yes)

* * *

Target: HLA-A1101 (Homo sapiens, UniProt P04439, A114D/D185E/E176A/F33Y/L180Q/S129P/T187R)
Construct: expressed in transfected cells; host or cells: HMy2.CIR
Assay: cell-based
Format: binding
Settings: HLA-A1101 HMy2.CIR cells; competitor peptide 5μM; 24 hours; flow cytometry; read-out: 5μM Inhibition (%)
Residues, ends and D or L forms follow the SMILES beside them.
Recorded metric: inhibition at 5 µM (%)
# number only, unit % dropped from output

Example compounds with recorded inhibition at 5 µM:
# Compound, inhibition at 5 µM [%]
rows = [
    ("CC(C)C[C@H](NC(=O)[C@H](CO)NC(=O)[C@H](CC(C)C)NC(=O)[C@@H](N)Cc1c[nH]c2ccccc12)C(=O)N[C@@H](CC(C)C)C(=O)N[C@H](C(=O)N1CCC[C@H]1C(=O)N[C@@H](Cc1ccccc1)C(=O)N[C@H](C(=O)O)C(C)C)C(C)C [Epitope P7]", 5.5),
    ("CC[C@H](C)[C@H](NC(=O)[C@H](CCC(N)=O)NC(=O)[C@H](Cc1c[nH]cn1)NC(=O)[C@H](C)NC(=O)[C@H](CC(N)=O)NC(=O)[C@@H](NC(=O)[C@@H](N)[C@@H](C)O)C(C)C)C(=O)N[C@@H](CC(C)C)C(=O)N1CCC[C@H]1C(=O)N[C@@H](CCCCN)C(=O)O [Epitope P17] (H-TVNAHQILPK-OH; N-terminus and C-terminus assumed)", 65.4),
]

Consider now this further compound.
Item CC(C)C[C@H](NC(=O)CN)C(=O)N[C@@H](CO)C(=O)N1CCC[C@H]1C(=O)N[C@H](C(=O)N[C@H](C(=O)N[C@@H](Cc1c[nH]c2ccccc12)C(=O)N[C@@H](CC(C)C)C(=O)N[C@@H](CO)C(=O)N[C@H](C(=O)O)C(C)C)C(C)C)[C@@H](C)O [Epitope P8] has what recorded inhibition at 5 µM?
14.1

* * *

Documented inhibition at 15 µM across a set of compounds
Molecular target: HLA-A0206 (Homo sapiens, UniProt P04439, D140Y/D185E/D98H/E176V/E277Q/F33Y/G131W/G231S/I119V/I121R/I166T/I218V/L300P/L318F/N151K/N90K/P208A/P217A/Q86G/Q94H/R138H/R169H/T345S)
Construct: expressed in transfected cells; host or cells: HMy2.CIR
Test: cell-based
Format: binding
Conditions: HLA-A0206 HMy2.CIR cells; competitor peptide 15μM; 24 hours; flow cytometry; read-out: 15μM Inhibition (%)
Residues, ends and D or L forms follow the SMILES beside them.
# number only, unit % dropped from output

# Compound, Obs value
measured = [
    ("CC(C)C[C@H](NC(=O)[C@H](CCC(=O)O)NC(=O)[C@H](CCCNC(=N)N)NC(=O)[C@H](CO)NC(=O)[C@H](C)N)C(=O)N[C@H](C(=O)N[C@H](C(=O)N[C@@H](CO)C(=O)N[C@@H](Cc1ccc(O)cc1)C(=O)O)C(C)C)C(C)C [Epitope P88] (H-ASRELVVSY-OH; N-terminus and C-terminus assumed)", 0.6),
    ("CC(C)C[C@H](NC(=O)[C@@H]1CCCN1C(=O)[C@H](CC(C)C)NC(=O)[C@H](Cc1ccc(O)cc1)NC(=O)[C@H](CCCCN)NC(=O)[C@@H](NC(=O)[C@@H](NC(=O)[C@@H](N)CCCCN)C(C)C)[C@@H](C)O)C(=O)N[C@@H](CC(=O)O)C(=O)N[C@@H](CCCCN)C(=O)O [Epitope P15] (H-KVTKYLPLDK-OH; N-terminus and C-terminus assumed)", 9.91),
    ("CC[C@H](C)[C@H](NC(=O)CNC(=O)[C@H](CC(C)C)NC(=O)[C@H](CO)NC(=O)[C@H](CC(C)C)NC(=O)[C@H](CC(C)C)NC(=O)[C@@H](N)Cc1ccccc1)C(=O)N[C@@H](Cc1c[nH]cn1)C(=O)N[C@@H](CC(C)C)C(=O)O [Epitope P10]", 43.2),
    ("CC[C@H](C)[C@H](NC(=O)[C@H](CO)NC(=O)[C@H](CO)NC(=O)[C@@H](NC(=O)[C@@H]1CCCN1C(=O)[C@H](CO)NC(=O)[C@H](C)N)[C@@H](C)CC)C(=O)N[C@@H](Cc1ccccc1)C(=O)N[C@@H](CO)C(=O)N[C@@H](CCCNC(=N)N)C(=O)O [Epitope P14] (H-ASPISSIFSR-OH; N-terminus and C-terminus assumed)", 8.87),
    ("CC(C)C[C@H](NC(=O)[C@H](CC(=O)O)NC(=O)[C@@H](NC(=O)[C@@H](NC(=O)[C@@H](N)CO)[C@@H](C)O)[C@@H](C)O)C(=O)N[C@@H](CCC(=O)O)C(=O)N[C@@H](C)C(=O)N[C@@H](Cc1ccc(O)cc1)C(=O)N[C@@H](Cc1ccccc1)C(=O)N[C@@H](CCCCN)C(=O)O [Epitope P18]", 13.4),
    ("CC[C@H](C)[C@H](NC(=O)[C@H](CC(C)C)NC(=O)[C@H](CCCCN)NC(=O)[C@H](C)NC(=O)CNC(=O)[C@H](CO)NC(=O)[C@H](CCCNC(=N)N)NC(=O)[C@H](CO)NC(=O)[C@@H](N)CCCNC(=N)N)C(=O)O [Epitope P89] (H-RSRSGAKLI-OH; N-terminus and C-terminus assumed)", 12.1),
    ("CC(C)[C@H](N)C(=O)N[C@@H](CS)C(=O)N[C@@H](C)C(=O)N1CCC[C@H]1C(=O)N[C@@H](C)C(=O)N1CCC[C@H]1C(=O)N[C@@H](CS)C(=O)N[C@@H](CC(N)=O)C(=O)N[C@@H](Cc1ccccc1)C(=O)O [Epitope P26] (H-VCAPAPCNF-OH; N-terminus and C-terminus assumed)", 7.69),
]

Item CC[C@H](C)[C@H](NC(=O)[C@H](Cc1c[nH]c2ccccc12)NC(=O)[C@@H](NC(=O)CNC(=O)[C@H](Cc1ccccc1)NC(=O)[C@H](CO)NC(=O)[C@@H](NC(=O)[C@@H](N)CC(C)C)C(C)C)C(C)C)C(=O)N[C@@H](CCCNC(=N)N)C(=O)O [Epitope P4] has what recorded inhibition at 15 µM?
14.2

Source: paper PMC9021956
